Measured values drawn from ChEMBL document CHEMBL3259727 for this set.

assay.overview: Half life in dog
Assay type: ADME, organism-based, Canis lupus familiaris
setup.conditions: in vivo
assay.metric: half-life (h)

{"smiles.text": "N#Cc1ccc(-c2ccc(C[C@@H](C#N)NC(=O)C3(N)CCOCC3)cc2)cc1", "experimental.result": 11.6}

---

Catalogue of half-life values
assay.overview: Half life in rat
Format: ADME, organism-based
setup.conditions: in vivo
assay.metric: half-life

{"smiles.text": "N#Cc1ccc(-c2ccc(C[C@@H](C#N)NC(=O)C3(N)CCOCC3)cc2)cc1", "assay.metric": "half-life", "experimental.result": "3.5 h"}
{"smiles.text": "N#Cc1ccc(-c2ccc(C[C@@H](C#N)NC(=O)[C@@H]3CCCCN3)cc2)cc1", "assay.metric": "half-life", "experimental.result": "4.5 h"}
